# target.system: UniProt:P36196
# Sequence (P36196 whole entry): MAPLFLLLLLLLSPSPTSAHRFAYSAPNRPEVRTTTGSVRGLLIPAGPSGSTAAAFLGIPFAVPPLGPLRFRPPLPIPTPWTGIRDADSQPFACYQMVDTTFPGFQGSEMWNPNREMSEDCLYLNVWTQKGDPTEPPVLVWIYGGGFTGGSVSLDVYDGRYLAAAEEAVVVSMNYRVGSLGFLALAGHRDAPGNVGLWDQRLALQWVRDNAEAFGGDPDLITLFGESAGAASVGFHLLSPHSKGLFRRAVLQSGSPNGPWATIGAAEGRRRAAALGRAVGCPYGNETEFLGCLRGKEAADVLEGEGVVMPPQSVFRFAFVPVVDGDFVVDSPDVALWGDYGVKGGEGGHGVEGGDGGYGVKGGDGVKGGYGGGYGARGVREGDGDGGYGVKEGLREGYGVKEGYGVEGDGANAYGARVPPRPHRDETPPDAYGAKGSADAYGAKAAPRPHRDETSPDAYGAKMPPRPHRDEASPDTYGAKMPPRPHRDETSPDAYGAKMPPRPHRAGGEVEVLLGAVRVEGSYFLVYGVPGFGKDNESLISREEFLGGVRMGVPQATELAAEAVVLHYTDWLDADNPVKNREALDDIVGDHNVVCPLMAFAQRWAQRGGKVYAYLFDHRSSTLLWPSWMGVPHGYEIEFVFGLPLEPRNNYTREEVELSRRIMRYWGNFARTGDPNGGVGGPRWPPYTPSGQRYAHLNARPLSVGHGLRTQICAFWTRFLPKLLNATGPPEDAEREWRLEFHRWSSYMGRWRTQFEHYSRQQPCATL
Please go through the items and note down their pIC50.
Numbers only, as −log10 of the molar value.

What does the record list as pIC50 for Br.CC1(C)NCCc2cc(O)c(O)cc21 ?
4.43

Next:
Given CNC(=O)Oc1ccc2c(c1)[C@]1(C)CCN(C)[C@@H]1N2C , state its recorded pIC50.
7.70

Values from ChEMBL document CHEMBL3227936
